target.or.test.system: T1, huIL-17RA-FLAG-polyHis (human, UniProt Q96F46 33-320)
T1 construct: also called IL-17RA-FLAG-pHis; wild-type IL-17RA
run.description: binning; IL-17RA held by bead mAb Q
# reported normalized MFI; entries follow
endpoint: normalized MFI

>>> test_result("AMH7/AML7 (antibody, IgG2, V domains shown, human mAb from IgG2 XenoMouse mice; also called AM-7; antibody D) VH: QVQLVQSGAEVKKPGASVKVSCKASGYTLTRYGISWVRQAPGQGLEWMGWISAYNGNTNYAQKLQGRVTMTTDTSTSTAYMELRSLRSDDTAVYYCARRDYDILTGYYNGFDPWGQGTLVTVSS VL: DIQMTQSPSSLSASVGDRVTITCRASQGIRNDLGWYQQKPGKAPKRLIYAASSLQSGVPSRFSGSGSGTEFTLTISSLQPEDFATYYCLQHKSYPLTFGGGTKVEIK")
4690
>>> test_result("AMH21/AML21 (antibody, IgG2, V domains shown, human mAb from IgG2 XenoMouse mice; also called AM-21; antibody Q) VH: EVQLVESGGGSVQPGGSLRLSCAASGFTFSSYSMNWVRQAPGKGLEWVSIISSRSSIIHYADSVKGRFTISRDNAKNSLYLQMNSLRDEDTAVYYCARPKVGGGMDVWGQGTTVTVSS VL: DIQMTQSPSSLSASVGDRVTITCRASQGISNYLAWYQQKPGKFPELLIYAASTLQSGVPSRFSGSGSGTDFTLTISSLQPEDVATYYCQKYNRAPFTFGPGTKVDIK")
100
>>> test_result("AMH12/AML12 (antibody, IgG2, V domains shown, human mAb from IgG2 XenoMouse mice; also called AM-12; antibody M) VH: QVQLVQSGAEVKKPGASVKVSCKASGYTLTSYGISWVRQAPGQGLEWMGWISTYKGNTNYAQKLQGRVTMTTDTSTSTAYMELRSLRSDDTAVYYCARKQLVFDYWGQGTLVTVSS VL: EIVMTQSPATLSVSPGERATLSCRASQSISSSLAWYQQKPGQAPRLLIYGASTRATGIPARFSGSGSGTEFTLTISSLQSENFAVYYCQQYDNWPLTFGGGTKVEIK")
60
